Test system: 782815-120-R-J1-PDC complex spheroid viability
method.notes: Anticancer human tumor 782815-120-R-J1-PDC patient-derived colon adenocarcinoma cell line growth inhibition [RAS]
condition.info: second compound 0.00949 µM; first compound 0.01 µM; stronger effect = lower value
Entries whose viability, T/C is below 70% take T; entries at or above 70% take F.

Strictly below 70% in viability, T/C? C=CC(=O)N1CCN(c2nc(OCC3CCCN3C)nc3c(F)c(-c4nc(N)cc(C)c4C(F)(F)F)c(Cl)cc23)C(C)C1 (stereo not given) + CCn1c(-c2cccnc2C(C)OC)c2c3cc(ccc31)N1CCOC(CC(NC(=O)C(C(C)C)N(C)C(=O)C3(F)CCN(C(=O)C#CC(C)(C)N(C)C)CC3)C(=O)N3CCCC(N3)C(=O)OCC(C)(C)C2)C1
F

Strictly below 70% in viability, T/C? CC(C)n1nc(-c2ccc3oc(N)nc3c2)c2c(N)ncnc21 + CCn1c(-c2cccnc2C(C)OC)c2c3cc(ccc31)N1CCOC(CC(NC(=O)C(C(C)C)N(C)C(=O)C3(F)CCN(C(=O)C#CC(C)(C)N(C)C)CC3)C(=O)N3CCCC(N3)C(=O)OCC(C)(C)C2)C1
F

Strictly below 70% in viability, T/C? O=C(c1ccc(F)c(F)c1Nc1ccc(I)cc1F)N1CC(O)([C@@H]2CCCCN2)C1 + CCn1c(-c2cccnc2C(C)OC)c2c3cc(ccc31)N1CCOC(CC(NC(=O)C(C(C)C)N(C)C(=O)C3(F)CCN(C(=O)C#CC(C)(C)N(C)C)CC3)C(=O)N3CCCC(N3)C(=O)OCC(C)(C)C2)C1
F

Strictly below 70% in viability, T/C? CCN1CCN(Cc2ccc(Nc3ncc(F)c(-c4cc(F)c5nc(C)n(C(C)C)c5c4)n3)nc2)CC1 + CCn1c(-c2cccnc2C(C)OC)c2c3cc(ccc31)N1CCOC(CC(NC(=O)C(C(C)C)N(C)C(=O)C3(F)CCN(C(=O)C#CC(C)(C)N(C)C)CC3)C(=O)N3CCCC(N3)C(=O)OCC(C)(C)C2)C1
F

Strictly below 70% in viability, T/C? C=CC(=O)N1CCN(c2nc(OCC3CCCN3C)nc3c(F)c(-c4nc(N)cc(C)c4C(F)(F)F)c(Cl)cc23)C(C)C1 (stereo not given) + CCn1c(-c2cc(N3CCN(C)CC3)cnc2C(C)OC)c2c3cc(ccc31)-c1csc(n1)CC(NC(=O)C1CC1C)C(=O)N1CCCC(N1)C(=O)OCC(C)(C)C2
T

Strictly below 70% in viability, T/C? O=C(c1ccc(F)c(F)c1Nc1ccc(I)cc1F)N1CC(O)([C@@H]2CCCCN2)C1 + CCn1c(-c2cc(N3CCN(C)CC3)cnc2C(C)OC)c2c3cc(ccc31)-c1csc(n1)CC(NC(=O)C1CC1C)C(=O)N1CCCC(N1)C(=O)OCC(C)(C)C2
T

Strictly below 70% in viability, T/C? Nc1ccn(C2OC(CO)C(O)C2(F)F)c(=O)n1 (stereo not given) + CCn1c(-c2cc(N3CCN(C)CC3)cnc2C(C)OC)c2c3cc(ccc31)-c1csc(n1)CC(NC(=O)C1CC1C)C(=O)N1CCCC(N1)C(=O)OCC(C)(C)C2
T

Strictly below 70% in viability, T/C? C=CC(=O)Nc1cc(Nc2nccc(-c3cn(C)c4ccccc34)n2)c(OC)cc1N(C)CCN(C)C + CCn1c(-c2cccnc2C(C)OC)c2c3cc(ccc31)N1CCOC(CC(NC(=O)C(C(C)C)N(C)C(=O)C3(F)CCN(C(=O)C#CC(C)(C)N(C)C)CC3)C(=O)N3CCCC(N3)C(=O)OCC(C)(C)C2)C1
F

Strictly below 70% in viability, T/C? C=CC(=O)Nc1cc(Nc2nccc(-c3cn(C)c4ccccc34)n2)c(OC)cc1N(C)CCN(C)C + CCn1c(-c2cc(N3CCN(C)CC3)cnc2C(C)OC)c2c3cc(ccc31)-c1csc(n1)CC(NC(=O)C1CC1C)C(=O)N1CCCC(N1)C(=O)OCC(C)(C)C2
T

----------
For each of the compounds below, state its viability, T/C.
System: 782815-120-R-J1-PDC complex spheroid viability
method.notes: Anticancer human tumor 782815-120-R-J1-PDC cell line growth inhibition [RAS];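 note: spheroids exposed to compounds for 7 days before reading; 100% = DMSO vehicle control viability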
condition.info: second compound 0.000949 µM; first compound 0.0316 µM; stronger effect = lower value
State just the number; it will be interpreted in %.

So for Cc1nc(N2CCC3(CC2)COC(C)C3N)c(CO)nc1Sc1ccnc(N)c1Cl (stereo not drawn) + CCn1c(-c2cccnc2C(C)OC)c2c3cc(ccc31)N1CCOC(CC(NC(=O)C(C(C)C)N(C)C(=O)C3(F)CCN(C(=O)C#CC(C)(C)N(C)C)CC3)C(=O)N3CCCC(N3)C(=O)OCC(C)(C)C2)C1 , the logged viability, T/C turned out to be 108

So for Cc1nc(N2CCC3(CC2)COC(C)C3N)c(CO)nc1Sc1ccnc(N)c1Cl (stereo not drawn) + CCn1c(-c2cc(N3CCN(C)CC3)cnc2C(C)OC)c2c3cc(ccc31)-c1csc(n1)CC(NC(=O)C1CC1C)C(=O)N1CCCC(N1)C(=O)OCC(C)(C)C2 , the logged viability, T/C turned out to be 73.5

So for CC(C)NCC(C(=O)N1CCN(c2ncnc3c2C(C)CC3O)CC1)c1ccc(Cl)cc1 (stereo not drawn) + CCn1c(-c2cccnc2C(C)OC)c2c3cc(ccc31)N1CCOC(CC(NC(=O)C(C(C)C)N(C)C(=O)C3(F)CCN(C(=O)C#CC(C)(C)N(C)C)CC3)C(=O)N3CCCC(N3)C(=O)OCC(C)(C)C2)C1 , the logged viability, T/C turned out to be 90.6

So for C=CC(=O)Nc1cc(Nc2nccc(-c3cn(C)c4ccccc34)n2)c(OC)cc1N(C)CCN(C)C + CCn1c(-c2cccnc2C(C)OC)c2c3cc(ccc31)N1CCOC(CC(NC(=O)C(C(C)C)N(C)C(=O)C3(F)CCN(C(=O)C#CC(C)(C)N(C)C)CC3)C(=O)N3CCCC(N3)C(=O)OCC(C)(C)C2)C1 , the logged viability, T/C turned out to be 99.6

So for CC(Nc1ccc2c(c1)OCCn1cc(N3C(=O)OCC3C(F)F)nc1-2)C(N)=O (stereo not drawn) + CCn1c(-c2cc(N3CCN(C)CC3)cnc2C(C)OC)c2c3cc(ccc31)-c1csc(n1)CC(NC(=O)C1CC1C)C(=O)N1CCCC(N1)C(=O)OCC(C)(C)C2 , the logged viability, T/C turned out to be 75.1

So for CCN1CCN(Cc2ccc(Nc3ncc(F)c(-c4cc(F)c5nc(C)n(C(C)C)c5c4)n3)nc2)CC1 + CCn1c(-c2cccnc2C(C)OC)c2c3cc(ccc31)N1CCOC(CC(NC(=O)C(C(C)C)N(C)C(=O)C3(F)CCN(C(=O)C#CC(C)(C)N(C)C)CC3)C(=O)N3CCCC(N3)C(=O)OCC(C)(C)C2)C1 , the logged viability, T/C turned out to be 106

So for C=CC(=O)N1CCN(c2nc(OCC3CCCN3C)nc3c(F)c(-c4nc(N)cc(C)c4C(F)(F)F)c(Cl)cc23)C(C)C1 (stereo not drawn) + CCn1c(-c2cccnc2C(C)OC)c2c3cc(ccc31)N1CCOC(CC(NC(=O)C(C(C)C)N(C)C(=O)C3(F)CCN(C(=O)C#CC(C)(C)N(C)C)CC3)C(=O)N3CCCC(N3)C(=O)OCC(C)(C)C2)C1 , the logged viability, T/C turned out to be 101

So for O=C(c1ccc(F)c(F)c1Nc1ccc(I)cc1F)N1CC(O)([C@@H]2CCCCN2)C1 + CCn1c(-c2cccnc2C(C)OC)c2c3cc(ccc31)N1CCOC(CC(NC(=O)C(C(C)C)N(C)C(=O)C3(F)CCN(C(=O)C#CC(C)(C)N(C)C)CC3)C(=O)N3CCCC(N3)C(=O)OCC(C)(C)C2)C1 , the logged viability, T/C turned out to be 60

----------
Test system: 782815-120-R-J1-PDC complex spheroid viability
method.notes: Anticancer human tumor 782815-120-R-J1-PDC cell line growth inhibition [RAS];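 note: spheroids exposed to compounds for 7 days before reading; 100% = DMSO vehicle control viability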
condition.info: second compound 0.00949 µM; first compound 3.16 µM; stronger effect = lower value
endpoint.name: viability, T/C (%)
State just the number; it will be interpreted in %.

So for CC(=O)OC12COC1CC(O)C1(C)C(=O)C(O)C3=C(C)C(OC(=O)C(O)C(NC(=O)OC(C)(C)C)c4ccccc4)CC(O)(C(OC(=O)c4ccccc4)C21)C3(C)C (configuration not stated) + CCn1c(-c2cc(N3CCN(C)CC3)cnc2C(C)OC)c2c3cc(ccc31)-c1csc(n1)CC(NC(=O)C1CC1C)C(=O)N1CCCC(N1)C(=O)OCC(C)(C)C2 , the logged viability, T/C turned out to be 19.1

So for C[C@@H](NC(=O)c1ncnc(N)c1Cl)c1ncc(C(=O)Nc2cc(C(F)(F)F)c(Cl)cn2)s1 + CCn1c(-c2cccnc2C(C)OC)c2c3cc(ccc31)N1CCOC(CC(NC(=O)C(C(C)C)N(C)C(=O)C3(F)CCN(C(=O)C#CC(C)(C)N(C)C)CC3)C(=O)N3CCCC(N3)C(=O)OCC(C)(C)C2)C1 , the logged viability, T/C turned out to be 61.2
